System: IGROV-1
Experimental protocol: NCI tumour cell line growth inhibition, 48 h
Activity calls are given as the source filed them. Rule as the data show it: active = GI50 up to about 1.1 µM and inactive = higher.
Outcomes you can answer with include only these: active, inactive

Please state the recorded outcome for this compound: O=C(O)C12C3C4(C(=O)O)C1C1(C(=O)O)C2C3(C(=O)O)C41 (stereo unspecified)
inactive

Please state the recorded outcome for this compound: C=C1C[C@@H]2CC[C@@]34CC5O[C@H]6C(O[C@H]7CC[C@H](CC(=O)O[C@@H]8[C@@H](C)[C@@H]9O[C@@H]%10C[C@]%11(C[C@@H]%12O[C@]%13(C[C@H](C)[C@@H]%14O[C@@H]%15CC(C(O)CO)O[C@@H]%15C[C@@H]%14O%13)C[C@H](C)[C@@H]%12O%11)O[C@@H]%10C[C@@H]9O[C@H]8CC8O[C@@H](CC[C@@H]1O2)C[C@@H](C)C8(O)CO)O[C@@H]7[C@@H]6O3)[C@H]5O4 (stereo partly specified)
active

Please state the recorded outcome for this compound: COc1ccc(NC(S)=Nc2cccc(C)n2)cc1
inactive

Please state the recorded outcome for this compound: CCOC(=O)c1ccc(Nc2nc3ccc(C(F)(F)F)cc3nc2-c2ccccc2)cc1
inactive

Please state the recorded outcome for this compound: CC(C)(C)c1ccnc(/N=C2\N/C(=N\c3cc(C(C)(C)C)ccn3)c3ccccc32)c1
inactive

Please state the recorded outcome for this compound: Nc1ncnc2c1ncn2C1OC(COC2C(CO)OC(OC(C(=O)O)C(O)C(OP(=O)(O)O)C(O)C(=O)O)C(O)C2O)C(O)C1O (stereo unspecified)
inactive

Recorded values, source ChEMBL document CHEMBL1201862.
